Assay: in vivo
Parameters: species or system rat (CFY strain)
Settings: rat, in vivo, po; 5 mg./kg. p.o., by the 21st day; read-out: dead animals, female
Readout: mortality at 504 h (%)
Give bare numbers, in %.

[Q] Item under review: COc1ccc2c(c1)c(CC(=O)O)c(C)n2C(=O)c1ccc(Cl)cc1 [Indomethacin] . Reported mortality at 504 h?
[A] 60

====

Assay: in vivo
Parameters: species or system rat (CFY strain)
Details: rat, in vivo, po; 5 mg./kg. p.o., by the 14th day; read-out: dead animals, male
Readout: mortality at 336 h
Provide the measurement as a number trailed by its unit.

[Q] Item under review: `COc1ccc2c(c1)c(CC(=O)O)c(C)n2C(=O)c1ccc(Cl)cc1` . Reported mortality at 336 h?
[A] 80%
